experiment: Antioxidant activity assessed as GPx-like activity by measuring oxidation of NADPH to NADP+ by NADPH-reductase coupled assay; assay type: functional
Calls of active or inactive are those of the source. The rule behind the calls is not given here.
property-name: Activity

Solved entries (count: 5):
C[C@H](C(=O)NCCC[Se]C(F)(F)F)c1cccc(C(=O)c2ccccc2)c1 :: Active
CC(C)Cc1ccc(C(C)C(=O)NCCC[Se]C#N)cc1 (stereo unspecified) :: Active
CC(C(=O)NCCC[Se]C(F)(F)F)c1ccc(-c2ccccc2)c(F)c1 (stereo unspecified) :: Active
CC(=O)Oc1ccccc1C(=O)NCCC[Se]C(F)(F)F :: Active
CC(=O)Oc1ccccc1C(=O)NCCC[Se]C#N :: Active

Which Activity reading was recorded for the compound CC(C)Cc1ccc(C(C)C(=O)NCCC[Se]C(F)(F)F)cc1 (stereo unspecified) ?
Active
